// reported melting point for each item listed

Use these answered entries as a reference point.
Compound | Measured Attribute | Result
CCOC(=O)C1CCC(=O)NC1=O (stereo not given) | melting point | 69 to 74 °C
CC(C)OC(=O)N1CCC(c2nc3cc(-c4ccc(C(N)=O)cc4Cl)ccc3o2)CC1 | melting point | 178 to 182 °C
Nc1ccc(Oc2ccc3cccnc3c2)cc1 | melting point | 131 °C
Cc1c(C)c2c(c(C)c1NC(=O)CC(C)(C)C)C(C)(c1ccc(C(C)C)cc1)CO2 (stereo not given) | melting point | 194 to 195 °C

The record that follows has no melting point shown yet.
Sure, the documented melting point for CC12CCC(=O)C=C1CCC1C3CC(OCCOC4CCCCO4)C(O)(C(=O)CO)C3(C)CC(O)C12F (stereo not given) is 196 to 200 °C

* * *

Measured Attribute: melting point

Use these answered entries as a reference point.
Compound | Result
CCCCCCOc1ccc2nc(-c3ccc(COC(CCCCCC)C(F)(F)F)cc3)sc2c1 (stereo not drawn) | 69.1 °C
CN(C)CCCCCCCOc1ccc(-c2nnc(CSCCOc3ccccc3)o2)cc1 | 39 to 40 °C
O=C1N=NC(=O)N1c1ccccc1 | 102 to 107 °C
CC(=O)SCC(Cc1ccccc1)NC(=O)N1CCN(c2ccc(Cl)cc2)CC1 (single isomer, unassigned; (+)) | 140 °C

Sure, the documented melting point for O=C(NCCc1ccccn1)Nc1cc(N2CC(c3ccccc3)CC2=O)ccn1 (stereo not drawn) is 202 to 204 °C

Sure, the documented melting point for "CCOC(=O)c1cccc2c1N=C(c1ccccc1)CC2=O" is 218 to 219 °C

* * *

Measured Attribute: melting point

Sure, the documented melting point for "COc1ccc(C(=O)Nc2ccc(F)c(F)c2)cc1NCc1ccc(C(=O)O)cc1" is > 240 °C

Sure, the documented melting point for "Cc1ccc2c(c1)C=Cc1cc(C)ccc1C2c1cn(-c2ccnc(N3C[C@H](O)C[C@H]3C(=O)O)n2)c(=O)[nH]c1=O" is 208 to 210 °C

Sure, the documented melting point for "Cc1noc(NS(=O)(=O)c2ccccc2-c2cc3ccccc3[nH]2)c1C" is 172 to 175 °C

Sure, the documented melting point for "COc1nc(NC#N)nc(OC)n1" is > 300 °C

Sure, the documented melting point for "CCCCCCCCCCCCCCCCCC[C@@H]1OC(=O)C(O)=C1O" is 110 to 112 °C

* * *

Measured Attribute: melting point

Use these answered entries as a reference point.
Molecule | melting point
C[C@H](OC(=O)NCC(F)(F)C(F)(F)F)C(=O)N[C@@H]1C(=O)N(C)c2cc(F)ccc2O[C@@H]1C | 148 to 150 °C
COc1ccc(OCC(=O)CS(=O)(=O)C(c2ccc(Cl)cc2)c2ccc(Cl)cc2)cc1 | 116 to 117 °C
CC1CCN(C(=O)Oc2ccccc2-c2ccccc2)CC1 | 85 to 86 °C
CCOC(=O)c1ccc(N2CSCC2=O)cc1 | 68 to 69 °C
CC(C)CCCCCCCCCCCC(=O)Nc1ccc(O)c(O)c1 | 85 to 86 °C

Sure, the documented melting point for "CS(=O)(=O)Cc1ccc(C(=O)c2ccc(Cl)cc2)cc1" is 164 to 166 °C

Sure, the documented melting point for "N#CNC(=NC1CCN(CCCc2ccccc2)CC1)N1CCc2ccccc2C1" is 122 to 124 °C

* * *

Measured Attribute: melting point

Use these answered entries as a reference point.
Compound | melting point
OC(c1cc(-c2ccc(F)cc2)c(-c2ccc(F)cc2)[nH]1)C(F)(F)F (centres undefined) | 121 to 122 °C
CS(=O)(=O)Nc1cc(C(=O)O)c2c(c1)C(C(=O)O)CCN2 (centres undefined) | 188 to 190 °C
CCC(CC)c1cccc2[nH]c(=O)n(C)c12 | 130 to 132 °C
CCOc1ccc2c(c1)n(C(C)(C)CC(C)(C)C)c(=O)n2S(=O)(=O)c1ccc(NC(=O)N(CC)CC)cc1OC | 225 °C
O=C(NCCc1ccccc1F)[C@@H]1Cc2ccccc2N1 | 135 °C
O=C1CCC(N2C(=O)c3cccc(NC(=O)CCCCCNC(=O)OCc4ccccc4)c3C2=O)C(=O)N1 (centres undefined) | 122 to 125 °C
CCc1nnc2cc(C)c(-c3ccc(C(N)=O)cc3)nn12 | 210 to 213 °C
CCc1ccc2c(OCC(=O)O)c(C(C)C)nn2c1 | 118 to 119 °C

Sure, the documented melting point for "O=c1c2cc(F)ccc2nc(NCc2ccccc2F)n1-c1ccccc1Cl" is 163 to 165 °C

Sure, the documented melting point for "CN(C)C(=O)COc1cccc(C=Cc2ccc3ccccc3n2)c1" is 104 to 106 °C

Sure, the documented melting point for CC1CCNC(=C2C(=O)CC(C)(C)CC2=O)C1 (centres undefined) is 174 °C

Sure, the documented melting point for "CCOC(=O)c1c(N2CCN(c3ccccc3)CC2)n[nH]c1C" is 137 to 138 °C

Sure, the documented melting point for "c1csc(-c2cnc(-c3cccs3)o2)c1" is 64.5 to 66 °C

Sure, the documented melting point for "CCOc1cc(-n2nc(C(=O)O)cc2-c2ccc(-c3ccco3)cc2)ccc1S(C)(=O)=O" is 256 to 257 °C

* * *

Measured Attribute: melting point

Molecule | melting point
CCC1(c2cccs2)OCC(=O)Nc2ccc(-c3sc(C#N)cc3C)cc21 (stereo not given) | 182 to 184 °C
CC(=O)OC(C)c1cc2c(s1)C(=O)c1sccc1C2=O (stereo not given) | 165 to 166 °C
O=C(Cn1c2c(c3ccccc31)CCNCC2)Nc1cccnc1 | 138 to 140 °C
Cc1c(-c2ccccc2)nnc(N(C)C)c1C | 86 to 89 °C
CCc1nc2c(N)nc3cc(-c4ccc(F)nc4)cnc3c2n1CC(C)(C)O | 250 to 251 °C
NCC(O)CSc1ccccc1 (stereo not given) | 57 to 61 °C
Brc1ccn(-c2ccc(-c3ccccc3)cc2)c1 | 141 to 143 °C
CNC1(c2ccccc2)CCN(C(c2ccccc2)(c2ccccc2)c2ccccc2)CC1 | 125 °C

Sure, the documented melting point for C=C1C[C@@H](C(=O)O)[C@H](C(=O)O)C1 (relative stereo) is 178 to 179 °C

Sure, the documented melting point for CC(F)c1nc[nH]c(=O)c1Cl (stereo not given) is 190 to 191 °C

Sure, the documented melting point for "CCCCC(=O)N(Cc1cccc(OC)c1)c1cc(F)cc(-c2nnn[nH]2)c1" is 118 to 120 °C

* * *

// reported melting point for each item listed

Use these answered entries as a reference point.
Mol | melting point
CC1=Cc2cc(C#N)ccc2OC1(C)C | 55 °C
COc1ccc(S(=O)(=O)N2CCC3(C=Cc4ccccc43)CC2)cc1 | 181 to 183 °C
Cc1ccc(C(=C/C=C/C=O)c2ccc(C)cc2)cc1 | 92 to 93 °C
O=C(O)c1ccccc1-c1cc(-c2cccc(C(F)(F)F)c2)no1 | 175 to 176 °C

The record that follows has no melting point shown yet.
Sure, the documented melting point for "O=CC1=CC2=C(OC1)c1ccccc1S(=O)(=O)N2" is 108 to 110 °C

* * *

// reported melting point for each item listed

Use these answered entries as a reference point.
Compound | melting point
CCc1ccc(C2C(=O)Oc3c2cc(C(C)(C)C)cc3C(C)(C)C)cc1 (centres undefined) | 127 to 132 °C
CN1CCCCC1CCn1nc(-c2c(-c3ccccc3)nn3ccccc23)ccc1=O (centres undefined) | 114 to 116 °C
CC1(C)OCC(COc2ccc(-c3ccc4cc(C(=O)O)ccc4c3)cc2C23CC4CC(CC(C4)C2)C3)O1 (centres undefined) | 287 °C
CCc1nc2c(N)nc3cc(OCc4ccccc4)ccc3c2n1CCCCNS(C)(=O)=O | 214 to 215 °C

The record that follows has no melting point shown yet.
Sure, the documented melting point for "CCNC(=O)n1nc(Oc2ncc(C(F)(F)F)cc2Cl)c(Cl)c1C" is 111 to 112 °C

* * *

// reported melting point for each item listed

Use these answered entries as a reference point.
Compound | Measured Attribute | Result
COC1(OCCCCl)C=CC(C(=O)O)=CC1 (stereo unspecified) | melting point | 157 to 159 °C
Cc1c2c(cc3c(-c4ccccc4F)noc13)CC(C(=O)O)O2 (stereo unspecified) | melting point | 188 to 189 °C

Sure, the documented melting point for COC(=O)C1OC(c2cc(-c3ncc(C(F)(F)F)cc3Cl)ccc2Cl)OC1C(=O)OC (stereo unspecified) is 48 to 53 °C

Sure, the documented melting point for "CC(C)(C)c1cc([N+](=O)[O-])cc(C(C)(C)C)c1O" is 167 to 168 °C

Sure, the documented melting point for "CCCS(=O)(=O)c1ccc(NS(=O)(=O)c2cccs2)c2[nH]c(C(=O)NCCSC(c3ccccc3)(c3ccccc3)c3ccccc3)cc12" is 200 to 201 °C

Sure, the documented melting point for CN1C(=O)N(c2nnc(C(C)(C)C)s2)C(=O)C1O (stereo unspecified) is 163 to 164 °C

Sure, the documented melting point for "COc1nc2cc(Cl)c(Cl)c(-n3cnnc3-c3cccnc3)c2nc1OC" is 206 to 207 °C

Sure, the documented melting point for "CC(C)c1ccc(-c2coc3cc(O)c(O)cc3c2=O)cc1" is 181 to 182 °C

Sure, the documented melting point for "c1cc(OCc2ccc3ccccc3n2)cc(OCc2ccccc2-c2nnn[nH]2)c1" is 166 to 170 °C

Sure, the documented melting point for CC(=O)OC(CS(=O)(=O)CC(OC(C)=O)c1ccc(N)cc1)c1ccc(N)cc1 (stereo unspecified) is 92 to 93 °C

Sure, the documented melting point for "CC(=O)Nc1c(C(C)=O)[nH]c2cc(Cl)ccc12" is 262 to 267 °C
